Quick reference for viability, T/C among some compounds
# System: K86415-001-R-J1-PDC complex spheroids, viability
# test description: Anticancer human tumor K86415-001-R-J1-PDC patient-derived lung adenocarcinoma cell line growth inhibition [RAS]
# particulars: second compound 0.0949 µM; first compound 0.0949 µM; stronger effect = lower value
# Excerpt: RAS pathway inhibitors in Combinations in Complex Spheroids A high-throughput screen of multi-cell type tumor spheroids was designed to identify active combinations of RAS pathway inhibitors and targeted small molecules. Complex spheroids include a stromal component modeled by human endothelial cells (HUVEC) and fibroblasts modeled by human mesenchymal stem cells (MSCs). […] Compounds. […] If the clinical Cmax for an agent had not been determined, the highest concentration tested was 10 microM. […]
Give the number; % is assumed, so skip it.

Solved cases below.
compound	reported measurement
CCc1c2c(nc3ccc(O)cc13)-c1cc3c(c(=O)n1C2)COC(=O)[C@]3(O)CC + CCn1c(-c2cc(N3CCN(C)CC3)cnc2C(C)OC)c2c3cc(ccc31)-c1csc(n1)CC(NC(=O)C1CC1C)C(=O)N1CCCC(N1)C(=O)OCC(C)(C)C2	1.76
CC1(C)CCC(Nc2ncc(C(F)(F)F)c(-c3c[nH]c4c(P(C)(C)=O)c(C#N)ccc34)n2)CN1 (centres undefined) + CCn1c(-c2cc(N3CCN(C)CC3)cnc2C(C)OC)c2c3cc(ccc31)-c1csc(n1)CC(NC(=O)C1CC1C)C(=O)N1CCCC(N1)C(=O)OCC(C)(C)C2	6.21
CC1(C)CCC(Nc2ncc(C(F)(F)F)c(-c3c[nH]c4c(P(C)(C)=O)c(C#N)ccc34)n2)CN1 (centres undefined) + CCn1c(-c2cccnc2C(C)OC)c2c3cc(ccc31)N1CCOC(CC(NC(=O)C(C(C)C)N(C)C(=O)C3(F)CCN(C(=O)C#CC(C)(C)N(C)C)CC3)C(=O)N3CCCC(N3)C(=O)OCC(C)(C)C2)C1	15.4

Proceed to the following item.
# input Tell me viability, T/C reported for CCc1c2c(nc3ccc(O)cc13)-c1cc3c(c(=O)n1C2)COC(=O)[C@]3(O)CC + CCn1c(-c2cccnc2C(C)OC)c2c3cc(ccc31)N1CCOC(CC(NC(=O)C(C(C)C)N(C)C(=O)C3(F)CCN(C(=O)C#CC(C)(C)N(C)C)CC3)C(=O)N3CCCC(N3)C(=O)OCC(C)(C)C2)C1
# output 3.93

----------
# Tested on: K86415-001-R-J1-PDC complex spheroids, viability
# test description: Anticancer human tumor K86415-001-R-J1-PDC cell line growth inhibition [RAS];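 further: spheroids exposed to agents for seven days before readout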
# particulars: second compound 0.1 µM; first compound 0.0316 µM; stronger effect = lower value
Quick reference for viability, T/C among some compounds
Give the number; % is assumed, so skip it.

Solved cases below.
compound	unit name	viability, T/C
Cc1nc(N2CCC3(CC2)COC(C)C3N)c(CO)nc1Sc1ccnc(N)c1Cl (stereo not given) + C#Cc1c(F)ccc2cc(O)cc(-c3ncc4c(N5CC6CCC(C5)N6)nc(OCC56CCCN5CC(F)C6)nc4c3F)c12	%	59.5
CC(Nc1ccc2c(c1)OCCn1cc(N3C(=O)OCC3C(F)F)nc1-2)C(N)=O (stereo not given) + C=CC(=O)N1CCN(c2nc(OCC3CCCN3C)nc3c(F)c(-c4nc(N)cc(C)c4C(F)(F)F)c(Cl)cc23)C(C)C1	%	8.36
C=CC(=O)N1CCN(c2nc(OCC3CCCN3C)nc3c(F)c(-c4nc(N)cc(C)c4C(F)(F)F)c(Cl)cc23)C(C)C1 (stereo not given) + C#Cc1c(F)ccc2cc(O)cc(-c3ncc4c(N5CC6CCC(C5)N6)nc(OCC56CCCN5CC(F)C6)nc4c3F)c12	%	11.3

# input Tell me viability, T/C reported for CC(=O)OC12COC1CC(O)C1(C)C(=O)C(O)C3=C(C)C(OC(=O)C(O)C(NC(=O)OC(C)(C)C)c4ccccc4)CC(O)(C(OC(=O)c4ccccc4)C21)C3(C)C (stereo not given) + C=CC(=O)N1CCN(c2nc(OCC3CCCN3C)nc3c(F)c(-c4nc(N)cc(C)c4C(F)(F)F)c(Cl)cc23)C(C)C1
# output 9.79

# input Tell me viability, T/C reported for CCC(CC)c1cc(NC2CCC(N)C2)n2nccc2n1 (stereo not given) + C#Cc1c(F)ccc2cc(O)cc(-c3ncc4c(N5CC6CCC(C5)N6)nc(OCC56CCCN5CC(F)C6)nc4c3F)c12
# output 99.1
